Readings of log10 of TGI for the listed compounds
# Test system: LOX IMVI melanoma
# test_name: NCI tumour cell line growth inhibition, 48 h
measured_metric: log10 of TGI (log10 of the value in µM)

                                   compound  measured_metric  readout_number
0  CCC/C=C/C=C\C(=O)O[C@@H]1[C@@H](C)[C@]2(O)[C@@H]3C=C(C)C(=O)[C@H]3CC(COC(C)=O)=C[C@H]2[C@@H]2C(C)(C)[C@]12OC(C)=O     log10 of TGI            1.76
1      O=C(/C=C/c1ccc(O)c(O)c1)c1ccc(O)cc1O     log10 of TGI            1.38
2      Cc1cc(C(=O)CC(Cl)=C(Cl)Cl)c(Cl)cc1Cl     log10 of TGI            1.53
3           C[n+]1ccc2/c(=C\C#N)c3ccccc3n21     log10 of TGI            1.61
4  COc1ccccc1/C=C1\CCC(CN2CCOCC2)C1=O (stereo unspecified)     log10 of TGI            1.20
5  COc1cccc(C2c3cc4c(cc3OC(NNC(N)=O)C2C)OCO4)c1OC (stereo unspecified)     log10 of TGI            1.66
6  CN(CCCCCCCCNc1ccnc2ccccc12)Cc1ccc(-c2ccc(-c3ccc(C#N)cc3)s2)cc1     log10 of TGI           -0.51
7  COc1ccc2nc3c([N+](=O)[O-])ccc4c3c(c2c1)N=CN4CCN(C)C     log10 of TGI            1.16
8  COC1=C(OC)C(=O)C(C/C=C/c2c(Cl)nc3sccn23)=C(C)C1=O     log10 of TGI            1.08
